tgt: CLK2
assay procedure: In vitro kinase inhibition assay CLK2
assay setup: 15 μM ATP, 30°C, buffer A, RS peptide
pIC50: −log10 of the molar value.
// pIC50 lookup, one value per entry

>  <smiles>
COc1ccc(/C=C2\SC(=S)NC2=O)cc1

>  <sign>
<

>  <pIC50>
5.00

$$$$
>  <smiles>
COc1ccc(/C=C2\SC(NCCCN3CCN(CCCNC4=NC(=O)/C(=C/c5ccc(OC)cc5)S4)CC3)=NC2=O)cc1

>  <sign>
=

>  <pIC50>
5.11

$$$$

* * *

>  <smiles>
O=C1N=C(NCCCN2CCN(CCCNC3=NC(=O)/C(=C/c4ccc5c(c4)OCO5)S3)CC2)S/C1=C\c1ccc2c(c1)OCO2

>  <melting point>
222 to 224 °C

$$$$
>  <smiles>
O=C1N=C(N2CCN(C3=NC(=O)/C(=C/c4ccccc4)S3)CC2)S/C1=C\c1ccccc1

>  <melting point>
> 260 °C

$$$$
>  <smiles>
O=C(O)CCN1C(=O)/C(=C/c2ccccc2)SC1=S

>  <melting point>
224 to 226 °C

$$$$
>  <smiles>
COc1ccc(/C=C2\SC(N3CCN(C4=NC(=O)/C(=C/c5ccc(OC)cc5)S4)CC3)=NC2=O)cc1

>  <melting point>
> 260 °C

$$$$
>  <smiles>
COc1ccc(/C=C2\SC(NCCCN3CCN(CCCNC4=NC(=O)/C(=C/c5ccc(OC)cc5)S4)CC3)=NC2=O)cc1

>  <melting point>
220 to 222 °C

$$$$
>  <smiles>
O=C(O)CCN1C(=O)/C(=C/c2ccc3c(c2)OCCO3)SC1=S

>  <melting point>
226 to 228 °C

$$$$

* * *

As shown below, each of these compounds has a reported IC50 value.
tgt: CDK5/p25 (Homo sapiens, UniProt Q00535)
Sequence (Q00535 whole entry): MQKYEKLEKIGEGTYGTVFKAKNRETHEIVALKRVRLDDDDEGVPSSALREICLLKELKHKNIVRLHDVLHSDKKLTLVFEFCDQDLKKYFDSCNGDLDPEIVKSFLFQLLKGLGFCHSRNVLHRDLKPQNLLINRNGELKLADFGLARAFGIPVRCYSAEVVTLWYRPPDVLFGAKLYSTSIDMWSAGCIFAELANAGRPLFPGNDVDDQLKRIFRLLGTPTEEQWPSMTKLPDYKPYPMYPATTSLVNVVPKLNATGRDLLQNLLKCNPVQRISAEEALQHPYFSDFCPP
Sequence (Q15078 99-307 partner limits assumed): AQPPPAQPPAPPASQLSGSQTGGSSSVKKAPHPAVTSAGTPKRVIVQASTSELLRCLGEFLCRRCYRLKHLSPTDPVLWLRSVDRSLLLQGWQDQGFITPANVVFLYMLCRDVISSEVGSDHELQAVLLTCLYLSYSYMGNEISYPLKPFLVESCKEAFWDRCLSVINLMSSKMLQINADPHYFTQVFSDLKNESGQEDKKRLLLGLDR
assay procedure: In vitro kinase inhibition assay CDK5/p25
assay setup: 15 μM ATP, 30°C, buffer C, histone H1

>  <compound>
COc1ccc(/C=C2\SC(=S)NC2=O)cc1 [Compound 3b]

>  <IC50>
> 10 µM

$$$$
>  <compound>
O=C1NC(=S)S/C1=C\c1ccc2c(c1)OCO2 [Compound 3c]

>  <IC50>
> 10 µM

$$$$
>  <compound>
COc1ccc(/C=C2\SC(NCCCN3CCN(CCCNC4=NC(=O)/C(=C/c5ccc(OC)cc5)S4)CC3)=NC2=O)cc1 [Compound 5d]

>  <IC50>
> 10 µM

$$$$

* * *

tgt: GSK-3α/β
assay procedure: In vitro kinase inhibition assay GSK3α/β
assay setup: 15 μM ATP, 30°C, buffer A, GS-1 substrate
Catalogue of IC50 values

>  <compound>
COc1ccc(/C=C2\SC(=S)NC2=O)cc1 [Compound 3b]

>  <IC50>
> 10 µM

$$$$
>  <compound>
O=C1NC(=S)S/C1=C\c1ccc2c(c1)OCO2 [Compound 3c]

>  <IC50>
8.5 µM

$$$$
>  <compound>
COc1ccc(/C=C2\SC(NCCCN3CCN(CCCNC4=NC(=O)/C(=C/c5ccc(OC)cc5)S4)CC3)=NC2=O)cc1 [Compound 5d]

>  <IC50>
> 10 µM

$$$$

* * *

Recorded measurements of pIC50, one per entry
tgt: UniProt:Q92630
Sequence (Q92630 whole entry): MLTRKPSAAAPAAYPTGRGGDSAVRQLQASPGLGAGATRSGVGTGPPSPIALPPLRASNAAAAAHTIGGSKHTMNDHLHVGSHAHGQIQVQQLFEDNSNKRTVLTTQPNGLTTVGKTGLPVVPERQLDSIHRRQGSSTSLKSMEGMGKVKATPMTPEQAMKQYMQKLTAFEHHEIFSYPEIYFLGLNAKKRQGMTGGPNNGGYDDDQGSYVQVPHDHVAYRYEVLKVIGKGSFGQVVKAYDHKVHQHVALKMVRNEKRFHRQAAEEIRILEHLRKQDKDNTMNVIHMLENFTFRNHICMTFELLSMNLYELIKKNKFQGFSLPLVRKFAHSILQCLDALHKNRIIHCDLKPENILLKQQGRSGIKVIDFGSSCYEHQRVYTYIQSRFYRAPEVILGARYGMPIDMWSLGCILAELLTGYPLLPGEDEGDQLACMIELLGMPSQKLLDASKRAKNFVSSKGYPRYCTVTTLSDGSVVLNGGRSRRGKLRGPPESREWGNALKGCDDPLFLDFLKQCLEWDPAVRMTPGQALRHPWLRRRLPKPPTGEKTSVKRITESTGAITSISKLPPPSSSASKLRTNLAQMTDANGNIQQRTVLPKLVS
assay procedure: In vitro kinase inhibition assay DYRK2
Type: biochemical
assay setup: 15 μM ATP, 30°C, buffer A, Woodtide substrate
pIC50: −log10 of the molar value.
measurement kind: pIC50

>  <smiles>
COc1ccc(/C=C2\SC(NCCCN3CCN(CCCNC4=NC(=O)/C(=C/c5ccc(OC)cc5)S4)CC3)=NC2=O)cc1

>  <tgt>
UniProt:Q92630

>  <measurement kind>
pIC50

>  <sign>
=

>  <reported measurement>
6.22

$$$$
>  <smiles>
COc1ccc(/C=C2\SC(=S)NC2=O)cc1

>  <tgt>
UniProt:Q92630

>  <measurement kind>
pIC50

>  <sign>
<

>  <reported measurement>
5.00

$$$$
